System: Pseudomonas aeruginosa
assay.comment: Compound was tested in vitro for antimicrobial activity against Pseudomonas aeruginosa K799
Type: functional
outcome.measure: MIC

Solved cases below.
>  <line.notation>
O=C([O-])C1=C(CO)S[C@@H]2CC(=O)N12.[Na+]

>  <measured.on>
Pseudomonas aeruginosa

>  <MIC>
> 64 µg/mL

$$$$
>  <line.notation>
C[C@@H](O)[C@H]1C(=O)N2C(C(=O)[O-])=C(CO)S[C@H]12.[Na+]

>  <measured.on>
Pseudomonas aeruginosa

>  <MIC>
64 µg/mL

$$$$
>  <line.notation>
C[C@@H](O)[C@H]1C(=O)N2C(C(=O)[O-])=C(COC(=O)c3ccc(O)c(O)c3)S[C@H]12.[Na+]

>  <measured.on>
Pseudomonas aeruginosa

>  <MIC>
> 64 µg/mL

$$$$

// query Quick one: MIC for `CC(=O)Oc1cccc(C(=O)OCC2=C(C(=O)[O-])N3C(=O)C[C@H]3S2)c1OC(C)=O.[Na+]` ?
// result > 32 µg/mL
